Data provenance is the supplement of paper PMC10567573.

Recorded measurements of protein stability index, one per entry
B1: GLT8D2 (parent)
chain: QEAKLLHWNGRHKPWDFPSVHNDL

Variants of: B1
Assay: protein stability index of a GFP-peptide fusion (GPS, HEK-293T) (PSI 1-6); higher = more stable;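 further: lentivirally expressed fusions sorted by FACS into six bins by GFP to DsRed ratio, PSI derived from sequencing read proportions per bin multiplied by bin number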
Settings: c terminus: a fixed tail appended
Hey, just send me the number, nothing else.

Here is how some variants turned out for protein stability index.
mutation_spec=L24E quantity_measured="protein stability index" numeric_readout=4.01
mutation_spec=H7K quantity_measured="protein stability index" numeric_readout=2.48
mutation_spec=N9A quantity_measured="protein stability index" numeric_readout=2.71
mutation_spec=S19R quantity_measured="protein stability index" numeric_readout=2.38
mutation_spec=L5S quantity_measured="protein stability index" numeric_readout=3.27

Identify protein stability index associated with the variant "H21E"
3.46
